Assay: yeast display, Sf9 membrane polyspecificity reagent, FACS + sequencing; frameworks hold sequencing errors
Measurement type: polyreactivity (PSR sort gate)

{"Input sequence": "QVQLVESGGGLVQAGGSLRLSCAASGRTFRSYAMGWYRQAPGKERELVAVISSDGSTYYADSVKGRFTISRDNAKNTVYLQMNSLKPEDTAVYYCAAEYTFEEIGGVEFDYWGQGTQVTVSS", "Measurement type": "polyreactivity (PSR sort gate)", "Value reported": "low polyreactivity"}
{"Input sequence": "QVQLEESGGGLVQAGGSLRLSCAASGAIFYAYAMGCYRQATGKEREFVAAITRRGGNTYYADSVKGRFTISRDNAKNTVYVQMNSLKPEDTEVYYSAADAGGGTFDYWGHGTQVTVSS", "Measurement type": "polyreactivity (PSR sort gate)", "Value reported": "low polyreactivity"}
